Molecular target: T1, PREP1HD (UniProt P55347 240-344)
T1 sequence: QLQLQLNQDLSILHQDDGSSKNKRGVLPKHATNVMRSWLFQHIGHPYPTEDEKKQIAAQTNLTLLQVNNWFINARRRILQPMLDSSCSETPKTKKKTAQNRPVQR
Experiment: fluorescence polarization; FP and EMSA: 20 mM Na/K phosphate pH 7.2, 150 mM NaCl, 5% glycerol, 1 mM TCEP, room temperature (FP 9 nM DNA, 30 min; EMSA gel run at 4 C in 0.5x TBE); NMR: 20
Conditions: protein: recombinant; tags: GST cleaved (pGEX-6P); label: 5' 6-FAM (FP); unlabeled in EMSA
pKd: −log10 of the molar value.
READOUT: pKd

PH (dsDNA) DNA 1: AGAGTGATTGATAAGG DNA 2: CCTTATCAATCACTCT	4.63
Control (dsDNA) DNA 1: AGGATAACCTGGGATT DNA 2: AATCCCAGGTTATCCT	3.80

The values you see were collected from paper PMC5240567.
